Target: T1, LbuC2c2-dHEPN2 (Leptotrichia buccalis, UniProt C7NBY4 1-1159, R1048A;H1053A)
T1 sequence: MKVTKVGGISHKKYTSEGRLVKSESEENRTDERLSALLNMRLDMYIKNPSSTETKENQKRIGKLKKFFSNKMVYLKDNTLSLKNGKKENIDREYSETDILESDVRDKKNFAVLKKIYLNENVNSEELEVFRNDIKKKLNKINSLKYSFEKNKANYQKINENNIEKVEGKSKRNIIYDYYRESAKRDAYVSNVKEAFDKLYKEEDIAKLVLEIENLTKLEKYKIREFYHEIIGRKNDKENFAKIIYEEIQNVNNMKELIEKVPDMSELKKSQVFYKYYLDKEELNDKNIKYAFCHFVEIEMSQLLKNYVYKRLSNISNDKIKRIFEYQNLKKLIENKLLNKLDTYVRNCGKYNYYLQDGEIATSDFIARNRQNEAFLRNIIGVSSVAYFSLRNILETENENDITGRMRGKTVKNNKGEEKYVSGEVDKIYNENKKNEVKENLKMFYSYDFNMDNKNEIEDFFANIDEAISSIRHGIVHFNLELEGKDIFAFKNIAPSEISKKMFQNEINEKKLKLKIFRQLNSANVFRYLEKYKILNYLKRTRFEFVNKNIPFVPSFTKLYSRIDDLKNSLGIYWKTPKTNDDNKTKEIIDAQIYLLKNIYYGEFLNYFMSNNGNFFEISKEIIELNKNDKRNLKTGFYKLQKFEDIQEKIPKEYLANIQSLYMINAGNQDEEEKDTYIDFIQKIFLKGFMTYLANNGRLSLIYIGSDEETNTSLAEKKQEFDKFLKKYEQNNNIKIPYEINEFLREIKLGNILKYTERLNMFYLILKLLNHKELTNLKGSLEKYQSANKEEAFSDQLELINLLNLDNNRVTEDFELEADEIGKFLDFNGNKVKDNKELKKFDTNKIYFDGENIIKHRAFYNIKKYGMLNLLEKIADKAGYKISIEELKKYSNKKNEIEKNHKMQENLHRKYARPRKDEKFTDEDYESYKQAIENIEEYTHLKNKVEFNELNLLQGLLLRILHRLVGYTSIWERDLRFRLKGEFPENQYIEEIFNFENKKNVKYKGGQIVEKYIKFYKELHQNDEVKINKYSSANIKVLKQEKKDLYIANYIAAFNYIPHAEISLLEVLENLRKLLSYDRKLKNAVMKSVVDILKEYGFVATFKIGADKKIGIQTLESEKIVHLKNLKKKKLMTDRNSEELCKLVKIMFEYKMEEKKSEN
Experiment: filter binding
Readout name: pKd
// pKd: -log10(molar conc.)

[ask] State the recorded pKd for this entry: mature crRNA-A_GG (crLbu_A_GG_AES432) (structured_RNA) RNA: GGCCACCCCAAAAAUGAAGGGGACUAAAACAGGGGCAGAGAUGAUGACCCU
[reply] 7.94
